Tested on: A498 renal
Test: NCI tumour cell line growth inhibition, 48 h
Reported GI50 values for a set of compounds

Examples from the recorded data:
compound	assayedTarget	GI50
CCCCCCCCCCC(C(O)c1ccccc1)N1CCCCC1 (configuration not stated)	A498 renal	1920 nM
Cc1cc(=O)[nH]c2cc3c(c4c(n3Cc3ccc(Cl)cc3Cl)CC(C)(C)CC4=O)c(O)c12	A498 renal	> 100000 nM
CC(NCCC(=O)N(CCC(=O)N(CCC(=O)N(CCC(=O)N(CCC(=O)N(CCC(=O)N(CCC(=O)N(CCC(=O)N(CCC(=O)N(CCC(=O)O)[C@H](C)c1ccccc1)[C@H](C)c1ccccc1)[C@H](C)c1ccccc1)[C@H](C)c1ccccc1)[C@H](C)c1ccccc1)[C@H](C)c1ccccc1)[C@H](C)c1ccccc1)[C@H](C)c1ccccc1)[C@H](C)c1ccccc1)c1ccccc1 (some centres not stated)	A498 renal	2370 nM

Tell me reported GI50 for N#CC1=C(N)Oc2c(sc3c(Br)cccc23)C1c1ccc(Br)cc1 (configuration not stated) , tested with A498 renal.
633 nM

Tell me reported GI50 for COC(=O)CCC1CCC(c2cc(F)ccc2F)(S(=O)(=O)c2ccc(Cl)cc2)CC1 (configuration not stated) , tested with A498 renal.
40400 nM

Tell me reported GI50 for `COc1cc(-n2cc(-c3ccc(Cl)cc3)nc2SCc2cccc(C#N)c2)cc(OC)c1OC` , tested with A498 renal.
33300 nM

Tell me reported GI50 for `C=C1C(=O)O[C@H]2[C@H]1CCC(/C=N/c1ncc(Br)cc1N)=C\CC[C@@]1(C)O[C@@H]21` , tested with A498 renal.
4820 nM

Tell me reported GI50 for `COc1ccc(-n2cc(-c3cc(OC)c(OC)c(OC)c3)nc2SCc2ccccc2)cc1OC` , tested with A498 renal.
> 100000 nM

Tell me reported GI50 for CC(C)COCC(CN(Cc1ccccc1)c1ccccc1)N1CCCC1 (configuration not stated) , tested with A498 renal.
1030 nM

Tell me reported GI50 for `COc1cccc2c1C(=O)c1c(O)c3c(c(O)c1C2=O)C[C@@](O)(C(=O)CO)C[C@@H]3O[C@H]1C[C@H](N)[C@@H](O)[C@H](C)O1` , tested with A498 renal.
134 nM

Tell me reported GI50 for `COc1ccc(/C=C(\C#N)n2nnc3ccccc32)cc1` , tested with A498 renal.
188 nM

Tell me reported GI50 for `CC(=O)c1cccc(Nc2nc3ccc(Cl)cc3c3[nH]c4ccccc4c23)c1` , tested with A498 renal.
2150 nM

---

Test system: COLO 205 colon
Test: NCI tumour cell line growth inhibition, 48 h
observationType: TGI (µM)
Give a bare numeral; the unit µM is implied.

Examples from the recorded data:
compound	resultUnits	observedValue
Cc1ccc(NC(=O)C(=O)CC(=O)c2c(C)n([O-])c3ccccc3[n+]2=O)cc1	µM	55.2
CCCCCCCCCCCCCCCCOCC(CP(=O)([O-])OCC[n+]1ccccc1)OC (centres undefined)	µM	20.5
CCN(CC)CCn1c2ccccc2c(=O)c2c(O)ccc(O)c21	µM	45.1

I'd like to know its TGI. The compound in question is `N#Cc1ccc(C(=O)/C=C/c2ccc(O)c(O)c2)cc1`
30.5

---

Test system: PC-3 prostate
Assay: NCI tumour cell line growth inhibition, 48 h
observationType: TGI (µM)
Give a bare numeral; the unit µM is implied.

I'd like to know its TGI. The molecule in question is `O=C1C=CC[C@H](/C=C/c2ccccc2)O1`
27.5

I'd like to know its TGI. The molecule in question is COc1ccc(C2=NN(C(N)=S)C(c3ccccc3)C2)cc1 (stereo unspecified)
97.5

I'd like to know its TGI. The molecule in question is COc1ccc(OC2OC(COC(c3ccccc3)(c3ccc(OC)cc3)c3ccc(OC)cc3)C(O)C(O)C2O)cc1 (stereo unspecified)
9.59

I'd like to know its TGI. The molecule in question is COC(=O)C1CCCN1C(=O)[C@@H]1CCCN1C(=O)[C@H](Cc1c[nH]c2ccccc12)NC(=S)Nc1cc(C(F)(F)F)cc(C(F)(F)F)c1 (stereo partly specified)
5.32

I'd like to know its TGI. The molecule in question is Nc1nc(N)c2c(n1)NC(c1ccc(F)cc1)C1CCc3ccccc3C1=N2 (stereo unspecified)
9.31

I'd like to know its TGI. The molecule in question is CC1(c2cccc(Cl)c2)CC(c2cccc(Cl)c2)=C(C#N)C(=C(C#N)C#N)N1 (stereo unspecified)
34.3
